- Test system: K4 kissing-loop RNA reporter;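 note: bound reporter read as fluorescence of individual clusters on recovered sequencing chips by microscopy, with normalized cluster intensities fitted with a binding model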
- testDetails: apparent KD of K4 kissing-loop reporter; higher = weaker reporter binding
- conditionDetails: Eterna round: R107; input ligand: theophylline 20 uM
We use 300 nM as the dividing line for apparent KD of K4 kissing-loop reporter: on or above the line is condition met, below is condition not met.

INSERT INTO results (entrysequence, qualitativelabel) VALUES
  ('UUUAUUAAGACGGCCGCCACUGAUUCAUAGUGAUGUUAUGAUAUAAUUUUAGUGAUGUGCAUUAGCAGGACCGGGUCAAUUAUUA [#28 K4 Tryptophan B Exclusion]', 'condition not met'),
  ('AAGGGCGAGGUAACGUGGAUAUCUCGUCGCAAGGAUAUCUGGAAACAGAGAAGGUGCUACAUUACCGGCAGUGAUGUUGCUGACC', 'condition not met'),
  ('AAUAAAAUCACGGCCGCCACUGGUACUAGUAUUAGCAGUGAUGUUGCUAUGUAUAAUUUAUUAAAUAGGACCGGGUGAAUAUUUA [#27 K4 Tryptophan B Exclusion]', 'condition not met'),
  ('GUGCAGUGAUGUUGCACGAGGAAAGACGAUACCAGCCGUAAAUAAGGCCCUUGGCAGCGUAGGCUAGCAUAAAGUAUGCCAGUCU [Geleerra]', 'condition not met'),
  ('AGUAGGAAACUACAAUCCUCUCUUACUGAAGGAGCGCGUGAAAACGCAGGUAGGUCGCAGGAUUUGAGAGUGAUGUUCUCAUUAA [Ex Arginine A K4 16]', 'condition not met'),
  ('GGCCGGAAGGCGAGCGCUCCCACUCCGGAAGGAGCGCCCGGAAGGGCAGGUAGGUCGCCGGAGUGAUGUUCCGGUGGAGGGCUCG [#2 Exclusion - Arginine A Attempt #19 (Inspired by Omei)]', 'condition not met'),
  ('AAAAUAAACCAGUGAUGUUGGUGUCUGGAUACCAGCGACGAAAGUCGCCCUUGGCAGCUACGGACGUACAAAAUAAGUACGUCCU [MatMod 8 - Jieux - Same State - Theophylline A]', 'condition met'),
  ('AGAUGUCCCUGGGAUACCAGUCGGAGUCUCAGAGCUCGGAGUGAUGUUCUGGGAUGUUUCGGCCCUUGGCAGCUCUGGGACUCCC [#2 Exclusion - Theophylline B Attempt #25 (HarryS)]', 'condition met'),
  ('CUAUCCCGCCGUGUAUGUAGUAUACGGUGCCGAGGACCGGUACGGCCGCCACUCGAUAAGCUUUGUCGGAGUGAUGUUCCGACCG [Soleesen]', 'condition not met'),
  ('AGAUCUAAGCUGAGUUAGUCACCAUAAAGCAAGGAUAUUCCACGAAGAAGAAGGUGCAUCAUCCAUAGUGAUGUUAUGGCACGGG [theeternabot_sameState_KL_FMN_A_7]', 'condition met'),
  ('UCCUGCAAUCGCCCACGAAAGUGGAUUGAUACCAGAGUCGAAAGACUCCCUUGGCAGCGAGUGAUGUUCGAAGCAGGUAAAUAAA', 'condition met'),
  ('UUUUUAAUCGCAGAUACCAGUCCAGAAUAAAUACUAUAGUGAUGUUAUAUAUAAGGAAAGGACCCUUGGCAGCUGUACUAUAUUU [AstrosSsTheB#8]', 'condition not met');

----------
- System: MS2 coat protein
- testDetails: apparent KD of MS2 coat protein; designed switch direction (-1 OFF switch, 1 ON switch): -1; higher = weaker reporter binding
- conditionDetails: input ligand: none
Lab note: anything with apparent KD of MS2 coat protein at or over 50 nM counts as fulfilled; the rest go in not fulfilled.

INSERT INTO measurements (entrysequence, measuredtarget, qualitativelabel) VALUES
  ('GUUUGCGCAGGAUAUACUCCUCCAUGUUAAGAGCAUGUGCGACAUGAGGAUCACCCAUGUAGAAGGGCGAGACG [Eternabot (L2) Solution 8] (Eterna round: R97, puzzle: Exclusion 2)', 'MS2 coat protein', 'fulfilled'),
  ('UGUUGUUACGCAGGAUAUGAGGAUCACCCAUAUUAGGAUAUCGAAAGAGAAUUUCUGAGGAUCACCCAGAAGGGCGGGUUAACA [pwkr exNG2 2xF5 2xFMN.36] (Eterna round: R96, puzzle: Exclusion NG 2)', 'MS2 coat protein', 'not fulfilled'),
  ('UCGCUCCGUGUAGGAUAUCGCCGUACCACUCGGCGAGAAGGACAUGAGGAUCACCCAUGUAUGUUAUUAUCACGUGUGGCGCGC [Design 52] (Eterna round: R96, puzzle: Exclusion NG 1)', 'MS2 coat protein', 'not fulfilled'),
  ('AUAUCGUGAGGAUAUCCAAUAUAUGACAUGAGGAUCACCCAUGUUUCCACUCGUACCUCCGGAGAAGGCACAGUUU [Ex5 #71] (Eterna round: R97, puzzle: Exclusion 5)', 'MS2 coat protein', 'not fulfilled'),
  ('AAUAAGCGAGGAUAUACACCCGGAAAACGGGAACGGGCGAGACAUGAGGAUCACCCAUGUAGAAGGCGCGUCAA [Sogexe] (Eterna round: R97, puzzle: Exclusion 2)', 'MS2 coat protein', 'fulfilled'),
  ('CUACCCUGAGGAUAUCCACCGUGAUACAUGAGGAUCACCCAUGUUAAUGCCUGAGUUCCCGGAGAAGGCAGAUUCC [Megrez2] (Eterna round: R97, puzzle: Exclusion 5)', 'MS2 coat protein', 'not fulfilled'),
  ('UUUACAAGCUAUUGAUCCCACAUGAGGAUCACCCAUGUUCAUGGCCGUGAGGCUAGGUAUACAAUUGCUCGUCUUAU [mod-JR] (Eterna round: R97, puzzle: Sensor, turn-off variant 1)', 'MS2 coat protein', 'fulfilled'),
  ('GUCACAUGGACAUAGGAUCACAUGAGGAUCACCCAUGUGACUAACAAGCUUUUUGUUCGUCUUAUGUCUAUGUGAAU [Stov1/16-B2] (Eterna round: R97, puzzle: Sensor, turn-off variant 1)', 'MS2 coat protein', 'not fulfilled'),
  ('ACAAGCUUUUGCUCGUCUUACAUGAGGAUCACCCAUGUCGGAUGAUCGCUUGCGUCCGGCGUCUGAGCCGUGACGGU [Sensor, turn off variant MOD of sellena. cleaned up dot.] (Eterna round: R97, puzzle: Sensor, turn-off variant 1)', 'MS2 coat protein', 'not fulfilled');

----------
- Tested on: MS2 coat protein
- testDetails: apparent KD of MS2 coat protein, switch OFF state (with FMN for OFF switches, without FMN for ON switches); designed switch direction (-1 OFF switch, 1 ON switch): -1; higher = weaker reporter binding
- conditionDetails: FMN input: 0 or 200 uM; Eterna round: R93 (includes R88 designs)
Would you mind classing the entries by apparent KD of MS2 coat protein? Ranges: low (below 40 nM), intermediate (40 nM to below 60 nM), high (60 nM or more)

INSERT INTO results (entrysequence, measuredtarget, qualitativelabel) VALUES
  ('GAGGUAUGAGGAUAUACAUAGAUACAGACACAUGUUCAAGUACAUGAGGAUCACCCAUGUAGAAGGCAUAUAUC [Mat - Same state - Mayanna Mod - D105]', 'MS2 coat protein', 'low'),
  ('CUCAAGUGAGGAUAUACAAAUAGUAAAUAAGUAUAACAAAAGUAGAAGGCACAUGAGGAUCACCCAUGUAAAUA [JR_Exc004_Sub302]', 'MS2 coat protein', 'low'),
  ('AGAGAGAGAGGAUAUACAUGAGGAUCACCCAUGUAAAAGAAAGAAAAGGGAAAGAAAAGUAGAAGGCUCAGAGA [Ruby 65]', 'MS2 coat protein', 'intermediate'),
  ('AAAGUACGAGGAUAUACAUAGAUACAGAUACAUGUAGACGUACAUGAGGAUCACCCAUGUAGAAGGCGUACAAG [Mat - Same state - Mayanna Mod - D116]', 'MS2 coat protein', 'high'),
  ('AAAUUGUCAGGAUAUCUUAGAACUCUAAAAUAGAGGAGCUAAGAGAAGGGACAUGAGGAUCACCCAUGUAAAAC [May 89]', 'MS2 coat protein', 'high'),
  ('AAAAAGGCAGGAUAUACAUGAGGAUCACCCAUGUAAAGAAAAGAAAGAUCCAAAGAAAGUAGAAGGGCCAAAAA [Ex3 sub 3]', 'MS2 coat protein', 'high'),
  ('UUCAAGUGAGGAUAUACGAAUAGUAAGUAAGUAUAACAGACGUAGAAGGCACAUGAGGAUCACCCAUGUAAAUA [JR_Exc004_Sub304]', 'MS2 coat protein', 'low'),
  ('UAAAGACAUGAGGAUCACCCAUGUGAGGAUAUGUGAGACAACAGAACAUCAAGUACAAGCAGAAGGCACAGAAA [JR_Exc001_Sub019]', 'MS2 coat protein', 'high'),
  ('AAGAAGGGAGGAUAUACAAAAUAAAAGAAAAGAAAGAAAGAACAUGAGGAUCACCCAUGUAGAAGGCCUAAGAA [Merneferre Ay I]', 'MS2 coat protein', 'low'),
  ('AAGAAGUGAGGAUAUCGAAGACUGUCGAAAAGACAGUCGAACGAGAAGGCACAUGAGGAUCACCCAUGUGAGGA [Marsurpial 65% 2]', 'MS2 coat protein', 'intermediate'),
  ('AAGAAGGCAGGAUAUACAUGAGGAUCACCCAUGUAAAAGAAAGAGGGAAAAGAGAAAAGUAGAAGGGCCAAGAA [Setepenre-meryamun Alexander III]', 'MS2 coat protein', 'high'),
  ('CUCUUGUCAGGAUAUCGAUGAAUAAUAAAACAGAGGAACAUUGAGAAGGGACAUGAGGAUCACCCAUGUAAAAC [May 83]', 'MS2 coat protein', 'intermediate'),
  ('AGUUGGCGAGGAUAUACAUGAGGAUCACCCAUGUGAGAGUAAAAAGUGAGAAAGAGAAGUAGAAGGCGCUAACA [Ruby 53]', 'MS2 coat protein', 'high'),
  ('GGAAAGCAAGGAUAUGCAAACAAACAAACAAACAAAAGGGAACAUGAGGAUCACCCAUGUAGAAGGUGCAAACA [Exclusion 2 Two redone]', 'MS2 coat protein', 'low'),
  ('AAAAAACAUGAGGAUCACCCAUGUGAGGAUAUGACGUAAAUAAAGAAAUAAGAAAUCGUCAGAAGGCACAAAAA [Mat - Exclusion 1 - Eli mod - D73]', 'MS2 coat protein', 'intermediate'),
  ('GGAGGCGAAGGAUAUACAUGAGGAUCACCCAUGUGAGAGAAAAAAGUGAGAAAGAAAAGUAGAAGGUCGUUUCG [salish99-ex3-128]', 'MS2 coat protein', 'high'),
  ('AAUUCACAUGAGGAUCACCCAUGUAAGGAUAUCGAAAUAAAACUAAUCAAUAAACAAACGAGAAGGUACAAAAA [Exclusion 1 design 8]', 'MS2 coat protein', 'low'),
  ('AAGUUAUUAGGAUAUACUUGUGCGAUUAAUACGUUGAUAGUACAUGAGGAUCACCCAUGUAGAAGGAAUAAAAA [JR_Exc002_Sub411]', 'MS2 coat protein', 'low'),
  ('AUAGUACAUGAGGAUCACCCAUGUCAGGAUAUUCGAUAUGAAAAAAAAAAAAAGUUAAGGAGAAGGGACUAUAA [EX1 Malc#13]', 'MS2 coat protein', 'low'),
  ('AAGAACGAAGGAUAUACAUGAGGAUCACCCAUGUAAAAGAAAGAAGGGAAAGAGAAAAGUAGAAGGUCGAAGAA [Usermaatre Piye]', 'MS2 coat protein', 'low'),
  ('GCUUGGCAAGGAUAUACAUGAGGAUCACCCAUGUGAGAGAAAAAAGUGAGAAAGAAAAGUAGAAGGUGUUGAGG [salish99-ex3-76]', 'MS2 coat protein', 'intermediate'),
  ('CAGUACUGAGGAUAUACAUGAGGAUCACCCAUGUGUAAAAGCUAGGAAACUAGCAAAUGUAGAAGGCAGUACUG [Ex3: 816]', 'MS2 coat protein', 'low'),
  ('AGCUAGUCAGGAUAUACGAACAUGUCGAAAGACGUGAAGGGACAUGAGGAUCACCCAUGUAGAAGGGACUAGCA [Mat - Exclusion 2 - JL mod - D1]', 'MS2 coat protein', 'high');
